- Tested on: EPHB2 kinase domain
- protocol.description: pTyr-Var library bacterial peptide display kinase screen (enrichment scores);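 further: log2 fold change in enrichment of variant over reference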
- Format: biochemical, human
- experimental.setup: sheet EPHB2; effect of variant peptide relative to its reference peptide in the pTyr-Var library screen (enrichment scores)
test.readout: Screen
Please give the numeric answer without any surrounding text.

FAELVYTSFWH [ASS1_Y322_G324S] :: 0.4289
LVTCSYLLGNS [LMNA_Y646_R644C] :: 1.308
VDGSVYELHPS [GCK_Y413_K414E] :: 2.546

Turning now to a further sequence:
Consider the sequence RIGRKYKRVRF [F8_Y442_K444R] . State its measured Screen.
1.084

====

- assay.system: c-Src kinase domain (Homo sapiens, UniProt P12931)
- protocol.description: pTyr-Var library bacterial peptide display kinase screen (enrichment scores);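 further: log2 fold change in enrichment of variant over reference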
- Format: biochemical
- experimental.setup: sheet "Src"; variant peptide versus its reference peptide in the pTyr-Var library screen
test.readout: Screen
Please give the numeric answer without any surrounding text.

Answered examples (10):
KRAAIYNPVIF [RHO_Y301_S297R_YF] :: -1.114
IATTIYSGDKI [UGGT2_Y823_A821T] :: -1.846
FKEVVYQAMEE [TACC3_Y684_E680K] :: -0.2069
LREKVYVSLEA [RXRA_Y397_A398V] :: -2.342
MSRFIYSTDFF [NTRK1_Y676_D674Y_YF] :: -0.3372
GFEEAYSVSKK [PAFAH1B1_Y28_F31S_YF] :: -2.622
FTDPFYDFEIE [ZC3H18_Y372_A368T_YF] :: 0.548
TQPSPYAVFLF [RPGRIP1_Y823_R827L_YF] :: -0.4188
SEPDLYFDPRG [PKP1_Y160_C161Y_YF] :: 1.044
AVISVYDLVVV [PSEN1_Y256_A260V] :: -0.2228

Consider the sequence AQMAMYFWEMS [TRPM4_Y577_G582S] . State its measured Screen.
-0.06271

Consider the sequence GFFDLYGGEKF [PTPN11_Y66_D61G_YF] . State its measured Screen.
-0.05122

Consider the sequence AEFGLYRAMVR [VSX2_Y222_G223R_YF] . State its measured Screen.
-2.091

Consider the sequence VVSLFYGTALF [OR10C1_Y251_M246V] . State its measured Screen.
-0.3109

Consider the sequence VARAVYQAVLS [SMG1_Y549_H546R] . State its measured Screen.
-1.809

Consider the sequence PKDSAYVTWEP [TTN_Y20731_S20726P] . State its measured Screen.
0.3327

Consider the sequence NREGVYTVSAP [TGFBI_Y537_F540S] . State its measured Screen.
-0.08291

====

- Tested on: EPHB2 kinase domain
- protocol.description: pTyr-Var library bacterial peptide display kinase screen (enrichment scores);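 further: log2 fold change in enrichment of variant over reference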
- Assay type: biochemical, human
- experimental.setup: sheet EPHB2; effect of variant peptide relative to its reference peptide in the pTyr-Var library screen (enrichment scores)
# key: entry, value: Screen
Please give the numeric answer without any surrounding text.

Answered examples (2):
LTFHMYADPNI [SOS1_Y618_F623I_YF] :: 0.3507
SSSAIYDNPDL [DCP1B_Y191_N195D] :: -0.486

Consider the sequence MTFQNYRQALF [FAM20C_Y279_G280R] . State its measured Screen.
-1.483

Consider the sequence VDGSLYETHPQ [HK1_Y417_K418E] . State its measured Screen.
2.555

Consider the sequence PANMVYSTVEI [SLAMF7_Y304_T302M] . State its measured Screen.
0.9599
